pIC50: −log10 of the molar value.
Ok so here's the combined literature set: pIC50 for Somatostatin receptor type 1 (Homo sapiens, UniProt P30872).
outcome measure: pIC50

Example entries and their recorded answers appear below.
> print(dat)
                                   compound  test.result
1  CO[C@@H]1CCN(C(=O)c2nc(C(C)c3ccc(F)cc3)c(NCCN3CCCC3)nc2C)C1 (stereo partly shown)         5.32
2  CN(C(=O)C(C)(C)COc1ncccc1C(F)(F)F)[C@@H]1CCNC[C@H]1c1ccccc1 (racemic)         4.30
3  CO[C@H]1CCN(C(=O)c2cnc(NCCN3CCCC3)c([C@H](C)c3ccc(F)cc3)n2)C1         5.50
4  CO[C@@H]1CCN(C(=O)c2cnc(NCCN3CCCC3)c([C@H](C)c3ccc(F)cc3)n2)C1         5.46
5  Cc1nc(NCCN2CCCC2)c(Cc2ccc(F)cc2)nc1C(=O)N(C)C         5.00

P: CO[C@H]1C[C@H](NC(=O)c2nc(C(C)c3ccc(F)cc3)c(NCCN3CCCC3)nc2C)C1 (stereo partly shown)
Q: Cc1cccc2c(CC3C(=O)N(CCCCCN)C(=O)N3S(=O)(=O)c3ccc(Oc4ccc(O)cc4)c(CN)c3)c[nH]c12 (stereo not shown)
Qu. Please indicate which item has the smaller measured pIC50: P versus Q // respond with label for picked entry
Ans. P
(P: 5.61, Q: 5.85)
